A compilation of Ki values for UniProt:P07711 from the published literature.
Sequence (P07711 whole entry): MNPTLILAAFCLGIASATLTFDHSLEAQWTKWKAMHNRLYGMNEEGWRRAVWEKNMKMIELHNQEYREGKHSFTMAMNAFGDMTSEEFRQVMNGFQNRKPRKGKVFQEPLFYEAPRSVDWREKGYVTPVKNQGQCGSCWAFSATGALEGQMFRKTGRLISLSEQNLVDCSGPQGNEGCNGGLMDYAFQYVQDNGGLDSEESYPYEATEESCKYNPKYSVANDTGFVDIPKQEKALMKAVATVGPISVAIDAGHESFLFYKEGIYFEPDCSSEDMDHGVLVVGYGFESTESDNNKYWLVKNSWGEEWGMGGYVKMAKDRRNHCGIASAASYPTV
Binarize Ki at 0.02 µM; below is 1.0, at or above is 0.0.

Field: example entries. Status: answers known.
Query: Does this compound meet the criterion Ki < 0.02 µM? CC(C)C[C@H](NC(=O)OCc1ccccc1)C(=O)N[C@@H](Cc1ccccc1)C(=O)CSC(C)(C)C
Response: 1.0

Query: For CC(C)C[C@H](NC(=O)OCc1cccnc1)C(=O)N[C@@H](CCc1ccccc1)C(=O)CSC(C)(C)C , is the recorded Ki below the cut-off of 0.02 µM?
Response: 0.0

New cases:
Query: Ki under 0.02 µM? Item: CC(C)(C)SCC(=O)[C@H](CCc1ccccc1)NC(=O)[C@H](Cc1ccccc1)NC(=O)OCc1cccnc1
Response: 1.0

Query: Determine if N#C[C@H](CCOCc1cn(CCC(=O)O)nn1)NC(=O)[C@H](Cc1ccccc1)NC(=O)OCc1ccccc1 shows Ki strictly lower than 0.02 µM.
Response: 0.0

Query: Is the reported Ki for NC(=O)C[C@H](NC(=O)Cc1ccc(-c2ccccc2)cc1)C(=O)N[C@H](CCCN=C(N)N)C(=O)N[C@@H](Cc1ccccc1)C(=O)NC(Cc1ccccc1)C(N)=O (stereo partly drawn) strictly below 0.02 µM?
Response: 0.0

Query: Is Ki strictly under 0.02 µM for the entry O=C(C[C@H](CC1CCCCC1)C(=O)N1CCOCC1)NCCNc1ccc(F)cc1 ?
Response: 0.0

Query: Determine if CC(C)C[C@H](NC(=O)c1ccc(CN)cc1)C(=O)N[C@@H](CCc1ccccc1)C(=O)CO shows Ki strictly lower than 0.02 µM.
Response: 1.0

Query: Quick check: does CCOC(=O)/C=C/C(=O)[C@H](CC(C)C)NC(=O)[C@H](Cc1ccccc1)NC(=O)OCc1ccccc1 have Ki under 0.02 µM?
Response: 1.0
